Reference source for all entries: a melting point compilation (Tetko et al.)

Record form. Attribute: melting point. Fill in for each entry.

Answered examples (5):
- compound: "ClCc1nnc(-c2cccs2)o1"
  measured endpoint: "melting point"
  result: "77 to 79 °C"
- compound: "O=C(O)C1(c2cccc(C(F)(F)F)c2)CCC1"
  measured endpoint: "melting point"
  result: "92 to 94 °C"
- compound: "CC1=NN(CC(C)C)C(=O)C1"
  measured endpoint: "melting point"
  result: "124 to 126 °C"
- compound: "O=C(O)c1cc(O)nc2ccc(Br)cc12"
  measured endpoint: "melting point"
  result: "355 to 357 °C"
- compound: "O=C(O)c1ccc(Cl)c(S(=O)(=O)N(Cc2ccccc2)c2cccc(C(F)(F)F)c2)c1"
  measured endpoint: "melting point"
  result: "201 to 203 °C"

Report melting point for every entry below.
1. CCC(C)C(O)C(=O)O (stereo not drawn)
2. COc1ccc2cc(C(C)C#N)ccc2c1 (stereo not drawn)
3. CC(C)n1ncc2c(C(=O)O)cc(-c3ccco3)nc21
4. Clc1ccc2c(n1)NCC2
5. CCOC(=O)c1sc(O)nc1C
6. COC(=O)c1ccc(C)c(NC(=O)OCC(F)(F)F)c1

(A)
1. 45 to 47 °C
2. 70 to 72 °C
3. 275 to 277 °C
4. 141 to 143 °C
5. 171 to 173 °C
6. 121 to 123 °C

Report melting point for every entry below.
1. O=C(O)C1CCCN(S(=O)(=O)c2cccnc2)C1 (stereo not drawn)
2. Cc1nn(-c2ccccc2)c2sc(C(=O)NN)cc12

(A)
1: 214 to 216 °C; 2: 264 to 266 °C

* * *

measured endpoint: melting point

- compound: "CCOc1cc2c(c3[nH]c(C(=O)O)cc13)OC(C)C2 (configuration not stated)"
  melting point: "226 to 228 °C"
- compound: "CC1CN(C(=O)c2cnn(C)c2N)CC(C)O1 (configuration not stated)"
  melting point: "152 to 154 °C"
- compound: "O=C(O)C1Cc2ccccc2CN1C(=O)c1ccco1 (configuration not stated)"
  melting point: "143 to 147 °C"
- compound: "O=Cc1ccc(OCC(=O)c2ccccc2)cc1"
  melting point: "115 to 119 °C"
- compound: "Cc1[nH]c2ncnn2c(=O)c1CCO"
  melting point: "267 to 269 °C"
- compound: "O=C(Nc1ccccc1F)C1CCc2ccccc2N1 (configuration not stated)"
  melting point: "96 to 98 °C"

(Q) What value of measured melting point is listed for O=C(O)c1ccccc1SCC(=O)N1CCCC1 ?
(A) 115 to 117 °C

* * *

Record form. Attribute: melting point. Fill in for each entry.

Answered examples (3):
- compound: "OCC1CCCN(c2cc(Cl)ncn2)C1 (stereo not drawn)"
  result: "111 to 113 °C"
- compound: "NC(c1nnn[nH]1)C1CC1 (stereo not drawn)"
  result: "233 to 235 °C"
- compound: "Nc1nc(C(=O)Nc2ccccc2)cs1"
  result: "169 to 171 °C"

Report melting point for every entry below.
1. CC(C)(C)c1ccc(C(=O)O)cc1[N+](=O)[O-]
2. O=C(O)c1ccc(CN2C(=O)CNC2=O)cc1
3. Cc1nccn1-c1ncccc1N
4. O=C(O)c1ccc(-c2ccc3c(c2)OCCO3)s1
5. CC(C)(C)OC(=O)N1CCN(S(=O)(=O)Cl)CC1

(A)
1: 156 to 158 °C; 2: 282 to 284 °C; 3: 166 to 168 °C; 4: 204 to 206 °C; 5: 148 to 150 °C

Report melting point for every entry below.
1. N#Cc1ccc(Oc2ccc(S(=O)(=O)Cl)cc2)cc1
2. O=C(NCC(F)(F)F)c1cccc(S(=O)(=O)Cl)c1
3. C=CCN1C(=O)C(=NN)c2ccccc21
4. COc1cccc(-c2ccc(CN)cc2)c1
5. Nc1c(Cl)cc(S(=O)(=O)Cl)cc1Cl

(A)
["110 to 112 °C", "83 to 85 °C", "129 to 132 °C", "46 to 48 °C", "134 to 136 °C"]
